Examples of binders with documented koff follow.
Target: DN-IV quality control recombinant protein (produced by the company) (dengue virus)
Experiment: BLI, antibody on AMC sensor

{"Binder": "Mutation 1-36 (antibody, V domains shown) VH: EVQLQQPGPELVKPGASVKMSCKASGYTFTSTVIHWVRQKPGQGLEWIGYMNPYNDGLKYNEKFIGKAILTSDKSSSTAYMQLSSLTSEDSAVYYCTREGLFYVFDYWGQGTSVTVSS VL: QIVLTQSPAIMSASPGEKVTMTCSATSSLSYMHWYQQKSGTSPKRWIYDSSKLASGVPVRFSGSGSGTSYSLTISSMEAEDAATYFCQQWRSDLPTFGAGTKLELKR", "koff": "0.000282 s⁻¹"}
{"Binder": "Mutation 1-24 (antibody, V domains shown) VH: EVQLQQPGPELVKPGASVKMSCKASGYTFTSTVIHWVRQKPGQGLEWIGYMNPYNDGIKYNEKFIGKAILTSDKSSSTAYMQLSSLTSEDSAVYYCTREGLFYVMDYWGQGTSVTVSS VL: QIVLTQSPAIMSASPGEKVTMTCSATSSVSYMHWYQQKSGTSPKRWIYDTSKLASGVPVRFSGSGSGTSYSLTISSMEAEDAATYFCQYWRSDLPTFGAGTKLELKR", "koff": "0.000133 s⁻¹"}
{"Binder": "Mutation 1-53 (antibody, V domains shown) VH: EVQLQQPGPELVKPGASVKMSCKASGYTFTSYVIHWVRQKPGQGLEWIGYMNPYNDGIKYNEKFIGKAILTSDKSSSTAYMQLSSLTSEDSAVYYCTREGLFYVMDYWGQGTSVTVSS VL: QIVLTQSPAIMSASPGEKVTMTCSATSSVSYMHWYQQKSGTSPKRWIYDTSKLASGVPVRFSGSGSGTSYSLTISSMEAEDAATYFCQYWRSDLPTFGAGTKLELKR", "koff": "0.000115 s⁻¹"}
